# assayName: Mean resident time in Sprague-Dawley rat at 2 mg/kg, iv
# Assay type: ADME, organism-based
# Design: dose 2 mg/kg, route intravenous
# conditionSet: in vivo
readout: MRT (h)
Numbers only; they are read as h.

Please fill in: MRT reported for COc1ccc(Nc2nc(Nc3ccccc3)nc(N3CCOCC3)n2)cc1 = 1.06

---

# assayName: Clearance in Sprague-Dawley rat at 2 mg/kg, iv
# Type: ADME, organism-based
# Design: dose 2 mg/kg, route intravenous
# conditionSet: in vivo
readout: clearance (mL/min/kg)
Numbers only; they are read as mL/min/kg.

Please fill in: clearance reported for COc1ccc(Nc2nc(Nc3ccccc3)nc(N3CCOCC3)n2)cc1 = 22.7

Hello, the source for this data is ChEMBL document CHEMBL1146333, in case you need it.
